- Test system: HCC 2998
- Assay Protocol: NCI tumour cell line growth inhibition, 48 h
Activity calls are given as the source filed them. Cut-off read from the data, not from the text of the source: active = GI50 up to about 1.1 µM and inactive = higher.
Allowed answers: 1.0 = active, 0.0 = inactive

# count of solved cases: 8
CC[C@H](CC[C@@H](C)[C@H]1CC[C@H]2[C@@H]3CC=C4C[C@@H](O)CC[C@]4(C)[C@H]3CC[C@]12C)C(C)C ... 0.0
COC(=O)C1=CC[C@@H]2C(C(=O)O)=CO[C@@H](OC3OC(CO)C(O)C(O)C3O)[C@H]12 (stereo partly drawn) ... 0.0
CC1OC(OC2C(OC(=O)[C@@H]3CC(C)(C)C[C@H]4C5=CC[C@@H]6[C@@]7(C)C[C@H](O)[C@H](OC8OC(CO)C(O)C(O)C8O)[C@@](C)(CO)[C@@H]7[C@H](O)C[C@@]6(C)[C@]5(C)CC[C@@]34C)OCC(O)C2O)C(O)C(O)C1O (stereo partly drawn) ... 0.0
O=C(OC1OC2COC(=O)c3cc(O)c(O)c(O)c3-c3c(cc(O)c(O)c3O)C(=O)OC3C2OC(=O)[C@@]24CC(=O)[C@@](O)(OC25C(=O)O[C@H]2[C@@H](O)CO[C@@]25O)C2(O)Oc5c(O)c(O)cc(c5C24)C(=O)OC13)c1cc(O)c(O)c(O)c1 (stereo partly drawn) ... 0.0
Cc1nc2ccccc2n1COC(Cn1ccnc1)c1ccc(Cl)cc1Cl (stereo not drawn) ... 0.0
O=C1/C(=C/c2ccc3c(c2)OCO3)Sc2scc(-c3ccc(O)c(O)c3)[n+]21 ... 0.0
CC1OC(c2ccc3c(OCc4ccccc4)cccc3c2O)CC(OCc2ccccc2)[C@H]1OCc1ccccc1 (stereo partly drawn) ... 0.0
C(/C=N/N=C1NCCCN1)=N\N=C1NCCCN1 ... 0.0

Let's switch to this compound now.
Data request: Please state the recorded outcome for this compound: `CC(=O)OC[C@@H](OC(C)=O)[C@@H](OC(C)=O)[C@H]1OC[C@@H]2C[C@H]([C@H]1OC(C)=O)N(Cc1ccccc1)O2`
Data returned: 0.0

Hello, the source for this data is ChEMBL document CHEMBL1201862, in case you need it.
